# STUDY TARGET: T1, recombinant human ROR1 extracellular domain (human, UniProt Q01973 30-406)
# T1 construct: biotinylated for the filter lifts; also called huROR1-ECD; human ROR1-ECD
# T1 sequence (Q01973 30-406 limits assumed): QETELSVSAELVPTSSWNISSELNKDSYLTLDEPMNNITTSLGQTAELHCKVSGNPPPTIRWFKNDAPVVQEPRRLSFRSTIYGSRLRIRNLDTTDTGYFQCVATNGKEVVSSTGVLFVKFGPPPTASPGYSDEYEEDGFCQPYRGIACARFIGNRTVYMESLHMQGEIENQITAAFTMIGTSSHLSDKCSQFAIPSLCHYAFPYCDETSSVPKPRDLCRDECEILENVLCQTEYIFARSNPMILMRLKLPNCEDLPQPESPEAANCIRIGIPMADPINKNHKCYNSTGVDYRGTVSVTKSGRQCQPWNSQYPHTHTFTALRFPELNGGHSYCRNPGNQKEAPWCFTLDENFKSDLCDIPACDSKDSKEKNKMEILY
# PROTOCOL TEXT: capture filter lift
READOUT LABEL: binding result

Value of binding result reported for the binder Ab1 Fab variant H2 K73C (Fab, V domains shown, Fab) VH: QVQLQESGPGLVKPSQTLSLTCTVSGYAFTAYNIHWVRQAPGQGLEWMGSFDPYDGGSSYNQCFKDRLTISKDTSKNQVVLTMTNMDPVDTATYYCARGWYYFDYWGHGTLVTVSS VL: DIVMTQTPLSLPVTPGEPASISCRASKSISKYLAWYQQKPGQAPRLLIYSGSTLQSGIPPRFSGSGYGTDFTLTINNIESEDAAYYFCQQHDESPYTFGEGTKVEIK is binds

Value of binding result reported for the binder Ab1 Fab variant L3 S135G (Fab, V domains shown, Fab) VH: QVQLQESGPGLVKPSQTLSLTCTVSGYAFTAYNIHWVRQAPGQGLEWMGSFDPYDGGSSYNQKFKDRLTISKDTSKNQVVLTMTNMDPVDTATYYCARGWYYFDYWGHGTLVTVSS VL: DIVMTQTPLSLPVTPGEPASISCRASKSISKYLAWYQQKPGQAPRLLIYSGSTLQSGIPPRFSGSGYGTDFTLTINNIESEDAAYYFCQQHDEGPYTFGEGTKVEIK is binds

Value of binding result reported for the binder Ab1 Fab variant H2 G67M (Fab, V domains shown, Fab) VH: QVQLQESGPGLVKPSQTLSLTCTVSGYAFTAYNIHWVRQAPGQGLEWMGSFDPYDGMSSYNQKFKDRLTISKDTSKNQVVLTMTNMDPVDTATYYCARGWYYFDYWGHGTLVTVSS VL: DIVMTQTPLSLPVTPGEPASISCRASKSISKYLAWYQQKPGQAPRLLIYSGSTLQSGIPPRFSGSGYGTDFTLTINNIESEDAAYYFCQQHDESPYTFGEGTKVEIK is binds
